Assay: Dynamic SPECT imaging and biological distribution in dogs after intravenous injection
Format: in vivo
Conditions: 30 Minutes
RESULT TYPE: Target/Non-Target Uptake Ratio Heart/Liver
Answer field: number only, no words.

COMPOUND: [C-]#[N+]CC(C)(C)OC.[C-]#[N+]CC(C)(C)OC.[C-]#[N+]CC(C)(C)OC.[C-]#[N+]CC(C)(C)OC.[C-]#[N+]CC(C)(C)OC.[C-]#[N+]CC(C)(C)OC.[Tc] [[^99mTc(MIBI)6]^+, reference compound]
REPORTED RESULT: 0.86

QUERY: Any idea what Target/Non-Target Uptake Ratio Heart/Liver was measured for COC(C)(C)CN=[C]=[99Tc+](=[C]=O)(=[C]=O)(=[C]=O)(=[C]=NCC(C)(C)OC)=[C]=NCC(C)(C)OC [[^99mTc(CO)3(MIBI)3]^+] ?
RESULT: 1.02
